Each recorded value in this set is attributed to paper PMC11866022.

# procedure.details: Lipophilicity, chromatographic hydrophobicity index on C18 (Valko protocol)
# Assay type: physicochemical
# experimental.conditions: pH 7.4
measure.name: CHI C18 pH 7.4

### Prompt Which value of CHI C18 pH 7.4 has been reported for O=S(=O)(c1cccc2ccccc12)N1CCN(CCNC2=Nc3ccccc3CN2)CC1 [PP 6] in the records?
### Response 101.5

### Prompt Which value of CHI C18 pH 7.4 has been reported for CC1NC(NCCCCCCNS(=O)(=O)c2c(Cl)ccc3ccccc23)=Nc2ccccc21 (stereo not drawn) [PP 13] in the records?
### Response 105.7

### Prompt Which value of CHI C18 pH 7.4 has been reported for O=S(=O)(NCCNC1=Nc2ccccc2CN1)c1cccc2ccccc12 [PP 4] in the records?
### Response 79.9

### Prompt Which value of CHI C18 pH 7.4 has been reported for CC1NC(NCCCCCCNS(=O)(=O)c2cccc3ccccc23)=Nc2ccccc21 (stereo not drawn) [PP 10] in the records?
### Response 99.7

### Prompt Which value of CHI C18 pH 7.4 has been reported for O=S(=O)(NCCNc1ncc2ccccc2n1)c1cccc2ccccc12 [PP 14] in the records?
### Response 86.3

### Prompt Which value of CHI C18 pH 7.4 has been reported for O=S1(=O)c2cccc3cccc(c23)N1CCCCCCNC1=Nc2ccccc2CN1 [PP 24] in the records?
### Response 103.2

### Prompt Which value of CHI C18 pH 7.4 has been reported for CC1NC(NCCCCCCNS(=O)(=O)c2cccc3ccccc23)=Nc2c(Cl)cc(Cl)cc21 (stereo not drawn) [PP 12] in the records?
### Response 111.2

### Prompt Which value of CHI C18 pH 7.4 has been reported for CC1NC(NCCCCCCNS(=O)(=O)c2cccc3ccccc23)=Nc2cccc(F)c21 (stereo not drawn) [PP 11] in the records?
### Response 103.1

### Prompt Which value of CHI C18 pH 7.4 has been reported for O=S(=O)(NCCCCCCNc1ncc2ccccc2n1)c1cccc2ccccc12 [PP 15] in the records?
### Response 104.4
